Source of measurements: the supplement of paper PMC8671470

Test system: NOMO-1
protocol-summary: cell viability (% survival relative to DMSO control, bortezomib = 0%); higher = less cytotoxic
experimental-parameters: 1 nM; 72 h
Where a name gives a salt, the structure may show the parent alone.
Field: cell viability. Provide a value for each of the compounds that follow.
// return numeric value only (unit: %, not printed)

Consider the compound NS(=O)(=O)c1ccc(NC(=O)Cc2ccccc2)cc1 [4-(2-Phenylacetamido)Benzenesulfonamide] . State its measured cell viability.
97.5

Consider the compound O=C(C(=O)c1ccc(Br)cc1)c1ccc(Br)cc1 [4,4'-Dibromobenzil] . State its measured cell viability.
95.6

Consider the compound "c1ccc2c(c1)SCc1c-2[nH]c2ccccc12" . State its measured cell viability.
97

Consider the compound COc1cc(/C=C/c2ccc(OC)cc2OC)cc(OC)c1 [2,3',4,5'-Tetramethoxystilbene] . State its measured cell viability.
97.5

Consider the compound CCCCCCCCCCCCC/C=C/[C@@H](O)[C@H](CO)N(C)C [N,N-Dimethylsphingosine] . State its measured cell viability.
92

Consider the compound Cc1nnc(-c2ccc(N3CCC(Oc4ccccc4C(F)(F)F)CC3)nn2)s1 [MF-438] . State its measured cell viability.
97.9

Consider the compound Nc1ccn([C@@H]2O[C@H](CO)[C@@H](O)C2(F)F)c(=O)n1 [Gemcitabine] . State its measured cell viability.
103

Consider the compound "CN(C)C(=O)n1nnnc1Cc1ccc(-c2ccccc2)cc1" . State its measured cell viability.
105

Consider the compound O=c1[nH]c(=O)n([C@H]2C[C@H](O)[C@@H](CO)O2)cc1I [Idoxuridine] . State its measured cell viability.
102

Consider the compound NCc1ccc(-c2cccnc2)s1 [(5-Pyrid-3-YLTHIEN-2-YL)METHYLAMINE] . State its measured cell viability.
109

Consider the compound O=C(/C=C/c1cccnc1)NCCCCC1CCN(C(=O)c2ccccc2)CC1 [Daporinad] . State its measured cell viability.
34.5

Consider the compound CC(C)(F)C[C@H](N[C@@H](c1ccc(-c2ccc(S(C)(=O)=O)cc2)cc1)C(F)(F)F)C(=O)NC1(C#N)CC1 [Odanacatib] . State its measured cell viability.
99.6

Consider the compound CC(C)(Cc1ccccc1)NCC(O)c1ccc(O)c(NS(C)(=O)=O)c1 (stereo unspecified) [Zinterol hydrochloride] . State its measured cell viability.
107

Consider the compound "CC(C)(CS(=O)(=O)[O-])NC(=O)CC[N+](C)(C)CCO" . State its measured cell viability.
94.8

Consider the compound Nc1nc(O)c2c(CCc3ccc(C(=O)N[C@@H](CCC(=O)O)C(=O)O)cc3)c[nH]c2n1 [Pemetrexed] . State its measured cell viability.
91

Consider the compound C[C@H]1O[C@H](O[C@H]2[C@H](O)[C@@H](O)[C@@H](O[C@H]3[C@H](O)[C@@H](O)C(O)O[C@@H]3CO)O[C@@H]2CO)[C@H](O)[C@@H](O)[C@@H]1N[C@H]1C=C(CO)[C@@H](O)[C@H](O)[C@H]1O (mixture of isomers) [Acarbose] . State its measured cell viability.
98.1

###

Test system: K-562
protocol-summary: cell viability (% survival relative to DMSO control, bortezomib = 0%); higher = less cytotoxic
experimental-parameters: 1000 nM; 72 h
Counter-ions that a name gives are not always drawn.
value-type: cell viability (%)
// return numeric value only (unit: %, not printed)

Fill in: cell viability on K-562, entry O[C@H]1[C@H](O)[C@@H](O)CN2CC[C@H](O)[C@H]12 [Castanospermine]
92.2

Fill in: cell viability on K-562, entry CC(=O)N1CCN(c2ccc(OC[C@@H]3CO[C@@](Cn4ccnc4)(c4ccc(Cl)cc4Cl)O3)cc2)CC1 (racemic) [Ketoconazole]
91.8

Fill in: cell viability on K-562, entry N[C@@H](CCC(=O)N[C@@H](CS)C(=O)NCC(=O)O)C(=O)O [Glutathione]
93.6

Fill in: cell viability on K-562, entry NCc1ccc(-c2cccnc2)s1 [(5-Pyrid-3-YLTHIEN-2-YL)METHYLAMINE]
90.4

Fill in: cell viability on K-562, entry OC[C@H]1OC(O)C[C@@H](O)[C@@H]1O (some centres not stated) [2-deoxyglucose]
101

Fill in: cell viability on K-562, entry O=C(Cc1cccc(OC(F)(F)F)c1)Nc1ccc(CCCCc2nnc(NC(=O)Cc3ccccn3)s2)nn1 [CB-839]
86

Fill in: cell viability on K-562, entry CC(C)(Cc1ccccc1)NCC(O)c1ccc(O)c(NS(C)(=O)=O)c1 (configuration not stated) [Zinterol hydrochloride]
107

Fill in: cell viability on K-562, entry Cl.OC[C@H]1NC[C@H](O)[C@@H](O)[C@H]1O [Migalastat]
101

Fill in: cell viability on K-562, entry NCc1ccc(S(N)(=O)=O)cc1 [4-Homosulfanilamide]
104

Fill in: cell viability on K-562, entry O=[As]O[As]=O (configuration not stated) [Arsenic trioxide]
102

Fill in: cell viability on K-562, entry C=C1C(=O)O[C@H](CCCCCCCC)[C@H]1C(=O)O [C75]
108

Fill in: cell viability on K-562, entry COc1ccc2c(c1)c(CC(=O)O)c(C)n2C(=O)c1ccc(Cl)cc1 [Indomethacine]
103

Fill in: cell viability on K-562, entry CC(C)c1ccc2c(c1)c(SC(C)(C)C)c(CC(C)(C)C(=O)O)n2Cc1ccc(Cl)cc1 [MK-886]
100

Fill in: cell viability on K-562, entry NS(=O)(=O)c1ccc(NC(=O)Cc2ccccc2)cc1 [4-(2-Phenylacetamido)Benzenesulfonamide]
112

Fill in: cell viability on K-562, entry CC(=O)N[C@@H](CS)C(=O)O [Acetylcysteine]
96.2

Fill in: cell viability on K-562, entry Nc1nc(O)c2c(CCc3ccc(C(=O)N[C@@H](CCC(=O)O)C(=O)O)cc3)c[nH]c2n1 [Pemetrexed]
68.4

Fill in: cell viability on K-562, entry CCCCCCCCCCCCCCOc1ccc(C(=O)O)o1 [TOFA]
108

Fill in: cell viability on K-562, entry N=C(N)c1ccc(N=NNc2ccc(C(=N)N)cc2)cc1 [Diminazene]
94.5

Fill in: cell viability on K-562, entry Cc1[nH]n(-c2ccccc2)c(=O)c1C1(C(F)(F)F)C(=O)N(c2ccccc2)C2=C1C(=O)CC(C)(C)C2 (configuration not stated)
108

Fill in: cell viability on K-562, entry Cl.NC1=CCCN1Cc1nc(O)nc(O)c1Cl [Tipiracil]
115

Fill in: cell viability on K-562, entry CCCCCCCNC=O [N-Heptyl-Formamide]
122

Fill in: cell viability on K-562, entry Cn1c2cc(S(C)=O)sc2c2cnn(Cc3cccc(N)c3)c(=O)c21 (configuration not stated) [TEPP-46]
111

###

Test system: Mono-Mac-6
protocol-summary: cell viability (% survival relative to DMSO control, bortezomib = 0%); higher = less cytotoxic
experimental-parameters: 1000 nM; 72 h
Structures can show the parent of a compound that is named as a salt.
Field: cell viability. Provide a value for each of the compounds that follow.
// return numeric value only (unit: %, not printed)

Fill in: cell viability on Mono-Mac-6, entry "Fc1ccc(CNc2ncnc3ccc(F)cc23)cc1"
106

Fill in: cell viability on Mono-Mac-6, entry CC(C)(Cc1ccccc1)NCC(O)c1ccc(O)c(NS(C)(=O)=O)c1 (stereo unspecified) [Zinterol hydrochloride]
48.6

Fill in: cell viability on Mono-Mac-6, entry CC1Cc2ccccc2N1NC(=O)c1ccc(Cl)c(S(N)(=O)=O)c1 (stereo unspecified) [Indapamide]
110

Fill in: cell viability on Mono-Mac-6, entry "O=NN(CCCl)C(=O)NCCCl"
109

Fill in: cell viability on Mono-Mac-6, entry "CC(C)c1ccc2c(c1)c(SC(C)(C)C)c(CC(C)(C)C(=O)O)n2Cc1ccc(Cl)cc1"
101

Fill in: cell viability on Mono-Mac-6, entry N#Cc1ccc(C2CCCc3cncn32)cc1 (stereo unspecified)
101

Fill in: cell viability on Mono-Mac-6, entry "CN(C)C(=N)NC(=N)N"
97.9

Fill in: cell viability on Mono-Mac-6, entry "OCCN(CCO)c1nc(N2CCCCC2)c2nc(N(CCO)CCO)nc(N3CCCCC3)c2n1"
97.1

Fill in: cell viability on Mono-Mac-6, entry NS(=O)(=O)c1ccc(NC(=O)Cc2ccccc2)cc1 [4-(2-Phenylacetamido)Benzenesulfonamide]
102

Fill in: cell viability on Mono-Mac-6, entry "Nc1ccn([C@@H]2O[C@H](CO)[C@@H](O)C2(F)F)c(=O)n1"
0.852

Fill in: cell viability on Mono-Mac-6, entry "Nc1nc(O)c2c(CCc3ccc(C(=O)N[C@@H](CCC(=O)O)C(=O)O)cc3)c[nH]c2n1"
23.5

Fill in: cell viability on Mono-Mac-6, entry "Cc1nnc(-c2ccc(N3CCC(Oc4ccccc4C(F)(F)F)CC3)nn2)s1"
99

Fill in: cell viability on Mono-Mac-6, entry "COc1cc(/C=C/c2ccc(OC)cc2OC)cc(OC)c1"
100

Fill in: cell viability on Mono-Mac-6, entry "Cc1nc(-c2ccc(OCC(C)C)c(C#N)c2)sc1C(=O)O"
92.9

Fill in: cell viability on Mono-Mac-6, entry "OCCN1C[C@H](O)[C@@H](O)[C@H](O)[C@H]1CO"
91.3

Fill in: cell viability on Mono-Mac-6, entry "c1ccc2nc(-c3nnc4sc(-c5cnccn5)nn34)ccc2c1"
91.1
